This listing pairs substances with measured APOE RNA (% control) Cortex.
- System: human APOE RNA
- ASSAY: Activity in APOE C57BL/6NTac-Apoeem7250 knock-in mice, single ICV bolus, 20 weeks (Example 13)
- Format: in vivo
- MEASUREMENT CONTEXT: cortex; single ICV bolus 300 μg; 20 weeks post treatment; normalized to mouse Ppia
- Method: Modified oligonucleotides described above were tested in the APOE C57BL/6NTac-Apoeem7250 knock-in mouse model described above. APOE C57BL/6NTac-Apoeem7250 knock-in mice were divided into groups of 4 mice each. […] Twenty weeks post treatment, mice were sacrificed and RNA was extracted from cortical brain tissue and spinal cord for quantitative real-time RT-PCR analysis of RNA expression of APOE using human primer probe set RTS3073 (described herein above). […]
Strand notation (5' to 3'): a small letter for the sugar, then the base; units joined by * are phosphorothioate-linked, units joined directly phosphodiester-linked; [ ] holds rarer units or linkages, { } end groups; capitals alone tell only the bases. [ms] = mesyl phosphoramidate linkage; e = 2'-O-(2-methoxyethyl) (MOE); k = constrained ethyl (cEt); [5mC] = 5-methylcytosine; d = 2'-deoxy (DNA)
Answer with the value and then the unit.

Past entries and their recorded results:
1778119 (eA*e[5mC]eTeTeG*eG*dT*dG[ms]dA[ms]dA*dT*d[5mC]*dT*dT*dT*dA[ms]kTeT*eA*eA; antisense) [Compound 1778119] : 84 % control
1778112 (eA*e[5mC]eTeTeGkG*dT*dG[ms]dA[ms]dA*dT*d[5mC]*dT*dT*dT*dA[ms]eTeT*eA*eA; antisense) [Compound 1778112] : 67 % control
1778125: modified oligonucleotide complementary to human APOE RNA (eA*e[5mC]eTeTeGeG*dT*dG[ms]dA[ms]dA*dT*d[5mC]*dT*dT*dT*dA[ms]kTkT*eA*eA; antisense) [compound 1778125] : 81 % control
1757584 (eT*eTeGeGeT*dG*dA*dA*dT*d[5mC]*dT*dT*dT*dA*dT*kTkAeA*eA*e[5mC]; antisense) [Compound 1757584] : 92 % control
1785599: modified oligonucleotide complementary to human APOE RNA (k[5mC]*kT*kT*dG[ms]dG[ms]dT[ms]dG[ms]dA[ms]dA[ms]dT[ms]d[5mC]*dT*dT*dT*dA*dT*kT*kA*dA[ms]kA; antisense) [compound 1785599] : 55 % control

[in] For 1757575 (eA*e[5mC]eTeT*kG*kG*dT*dG[ms]dA[ms]dA[ms]dT*d[5mC]*dT*dT*dT*dA[ms]kT*eT*eA*eA; antisense) [Compound 1757575] , what is its reported APOE RNA (% control) Cortex?
[out] 39 % control

[in] Param item: 1757585 (eT*eTeGkGkT*dG*dA*dA*dT*d[5mC]*dT*dT*dT*dA*dT*kTeAeA*eA*e[5mC]; antisense) [Compound 1757585]
[out] 62 % control

[in] Entry to check: 1779961 (e[5mC]*eTeT*kG[ms]kG*eT*dG[ms]dA[ms]dA[ms]dT*d[5mC]*dT*dT*dT*dA[ms]dT*eT*eA*eA*eA; antisense) [Compound 1779961]
[out] 59 % control

[in] Entry 1778120 (eA*e[5mC]eTeTeGeG*dT*dG[ms]dA[ms]dA*dT*d[5mC]*dT*dT*dT*dA[ms]kTeT*eA*eA; antisense) [Compound 1778120] please
[out] 78 % control

[in] Please give the result for 1778128: modified oligonucleotide complementary to human APOE RNA (eA*e[5mC]eTeTkGkG*dT*dG[ms]dA[ms]dA*dT*d[5mC]*dT*dT*dT*dA[ms]kTeT*eA*eA; antisense) [compound 1778128] too.
[out] 60 % control

====

- Tested on: human APOE RNA
- ASSAY: Dose-dependent inhibition of human APOE RNA in HepG2 cells, electroporation, 50,000 cells per well, RT-PCR normalized to GAPDH (Example 4, Tables 8-10)
- Format: cell-based
- MEASUREMENT CONTEXT: 8,000 nM; HepG2, electroporation, 24-hour treatment
Strand notation (5' to 3'): a small letter for the sugar, then the base; units joined by * are phosphorothioate-linked, units joined directly phosphodiester-linked; [ ] holds rarer units or linkages, { } end groups; capitals alone tell only the bases. [ms] = mesyl phosphoramidate linkage; k = constrained ethyl (cEt); [5mC] = 5-methylcytosine; d = 2'-deoxy (DNA)
VALUE KIND: APOE RNA (% UTC)
Reply numerically in % UTC, unit not repeated.

1746809 (k[5mC]*dT[ms]kT*dG[ms]kG*dT[ms]dG[ms]dA[ms]dA[ms]dT*d[5mC]*dT*dT*dT*dA[ms]dT*dT[ms]kA*kA*kA; antisense) [Compound 1746809] : 23
1746810 (k[5mC]*dT[ms]kT*dG[ms]dG[ms]kT*dG[ms]dA[ms]dA[ms]dT*d[5mC]*dT*dT*dT*dA[ms]dT*dT[ms]kA*kA*kA; antisense) [Compound 1746810] : 8
1746806 (k[5mC]*kT*dT[ms]dG[ms]kG*dT[ms]dG[ms]dA[ms]dA[ms]dT*d[5mC]*dT*dT*dT*dA[ms]dT*dT[ms]kA*kA*kA; antisense) [Compound 1746806] : 25

Shifting focus to the substance that follows.
[in] # input substance: 1747053 (k[5mC]*dT[ms]dT[ms]kG*kG*kT*dG[ms]dA[ms]dA[ms]dT*d[5mC]*dT*dT*dT*dA[ms]dT*kT*dA[ms]dA[ms]kA; antisense) [Compound 1747053] ; wanted: its APOE RNA (% UTC)
[out] 38

====

- Test system: human APOE RNA
- ASSAY: Dose-dependent inhibition of human APOE RNA in HepG2 cells, electroporation, 50,000 cells per well, RT-PCR normalized to GAPDH (Example 4, Tables 8-10)
- Type: cell-based
- MEASUREMENT CONTEXT: 5 nM; HepG2, electroporation, 16-hour treatment
Strand notation (5' to 3'): a small letter for the sugar, then the base; units joined by * are phosphorothioate-linked, units joined directly phosphodiester-linked; [ ] holds rarer units or linkages, { } end groups; capitals alone tell only the bases. [ms] = mesyl phosphoramidate linkage; e = 2'-O-(2-methoxyethyl) (MOE); k = constrained ethyl (cEt); [5mC] = 5-methylcytosine; d = 2'-deoxy (DNA)
Short version: APOE RNA (% UTC) at least 90 % UTC is yes (1), less is no (0).

[in] Dear colleague, could you confirm whether 1757581 (eT*eTeGeGkT*dG*dA*dA*dT*d[5mC]*dT*dT*dT*dA*dT*eTeAeA*eA*e[5mC]; antisense) [Compound 1757581] has APOE RNA (% UTC) at or above 90 % UTC?
[out] no (0)

[in] Let us now turn to 1757561: mixed MOE/cEt gapmer TTGGTGAATCTTTATTAA, sugar eeekkddddddddkeeee, linkages soossssssssssooss (eT*eTeGkG*kT*dG*dA*dA*dT*d[5mC]*dT*dT*dT*kAeTeT*eA*eA) [compound 1757561]
[out] yes (1)

[in] Likewise for 1757570 (eA*e[5mC]eTeTkG*dG*dT*dG*dA*dA*dT*d[5mC]*dT*dT*dT*kAkTeT*eA*eA; antisense) [Compound 1757570] ?
[out] yes (1)

[in] Now the same for 1757572 (eA*e[5mC]eTeT*kG*kG*dT*dG[ms]dA[ms]dA[ms]dT*d[5mC]*dT*dT*dT*dA[ms]eT*eT*eA*eA; antisense) [Compound 1757572]
[out] yes (1)

[in] Then what about the substance 1757582 (eT*eTeGkGkT*dG*dA*dA*dT*d[5mC]*dT*dT*dT*dA*dT*eTeAeA*eA*e[5mC]; antisense) [Compound 1757582] ?
[out] no (0)

[in] Now this one: 1757544: mixed MOE/cEt gapmer TTGGTGAATCTTTATTAA, sugar ekeeeddddddddeeeee, linkages soossssssssssooss (eT*kTeGeG*eT*dG*dA*dA*dT*d[5mC]*dT*dT*dT*eAeTeT*eA*eA) [compound 1757544]
[out] yes (1)

[in] Request: 1757565 (eA*e[5mC]eTeTkG*dG*dT*dG*dA*dA*dT*d[5mC]*dT*dT*dT*eAeTeT*eA*eA; antisense) [Compound 1757565]
[out] yes (1)

[in] Try the substance 1757566 (eA*e[5mC]eTkTkG*dG*dT*dG*dA*dA*dT*d[5mC]*dT*dT*dT*eAeTeT*eA*eA; antisense) [Compound 1757566]
[out] no (0)

[in] Also need Compound No. 1517891: comparator of WO 2022/066956; ACTTGGTGAATCTTTATTAA, sugar eeeeeddddddddddeeeee, linkages sooosssssssssssooss (MOE gapmer, mixed PS/PO linkages, chemistry not fully specified) [reference compound] , thanks.
[out] no (0)

[in] Same for 1757562: mixed MOE/cEt gapmer TTGGTGAATCTTTATTAA, sugar eeeekddddddddkkeee, linkages soossssssssssooss (eT*eTeGeG*kT*dG*dA*dA*dT*d[5mC]*dT*dT*dT*kAkTeT*eA*eA) [compound 1757562]
[out] yes (1)

[in] Entry to check: 1766537 (eT*eTeGeGeT*dG[ms]dA[ms]dA[ms]dT*d[5mC]*dT*dT*dT[ms]dA*dT*kTkAeA*eA*e[5mC]; antisense) [Compound 1766537]
[out] yes (1)

[in] Same for 1757569 (eA*e[5mC]eTkTkG*dG*dT*dG*dA*dA*dT*d[5mC]*dT*dT*dT*kAeTeT*eA*eA; antisense) [Compound 1757569]
[out] yes (1)

[in] Quick one: 1757575 (eA*e[5mC]eTeT*kG*kG*dT*dG[ms]dA[ms]dA[ms]dT*d[5mC]*dT*dT*dT*dA[ms]kT*eT*eA*eA; antisense) [Compound 1757575]
[out] no (0)
